The values you see were collected from paper PMC5278707.

Measured Vd values are reported for all entries that follow.
experiment: single-dose pharmacokinetics in beagle dogs; settings: male, beagle, dog, in vivo, iv, 1.4 mg/kg
Field format: number, assumed L/kg, no unit text.

CCCCCOc1ccc(-c2ccc(-c3ccc(C(=O)N[C@H]4C[C@@H](O)[C@@H](NCCNCCO)NC(=O)[C@@H]5[C@@H](O)[C@@H](C)CN5C(=O)[C@H]([C@@H](C)O)NC(=O)[C@H]([C@H](O)[C@@H](O)c5ccc(O)cc5)NC(=O)[C@@H]5C[C@@H](O)CN5C(=O)[C@H]([C@@H](C)O)NC4=O)cc3)cc2)cc1 :: 0.687

[Q] Item `CCCCCOc1ccc(-c2ccc(-c3ccc(C(=O)N[C@H]4C[C@@H](O)[C@@H](OCCOCCO)NC(=O)[C@@H]5[C@@H](O)[C@@H](C)CN5C(=O)[C@H]([C@@H](C)O)NC(=O)[C@H]([C@H](O)[C@@H](O)c5ccc(O)cc5)NC(=O)[C@@H]5C[C@@H](O)CN5C(=O)[C@H]([C@@H](C)O)NC4=O)cc3)cc2)cc1` has what recorded Vd?
[A] 0.361

[Q] And what about the compound `CCCCCOc1ccc(-c2ccc(-c3ccc(C(=O)N[C@H]4C[C@@H](O)[C@@H](NCC[N+](C)(C)C)NC(=O)[C@@H]5[C@@H](O)[C@@H](C)CN5C(=O)[C@H]([C@@H](C)O)NC(=O)[C@H]([C@H](O)[C@@H](O)c5ccc(O)cc5)NC(=O)[C@@H]5C[C@@H](O)CN5C(=O)[C@H]([C@@H](C)O)NC4=O)cc3)cc2)cc1` ?
[A] 0.874
